FYI, the data here is from PubChem BioAssay (NCI).

system: K-562 leukemia; experiment: NCI tumour cell line growth inhibition, 48 h
Readout Label: TGI

As a guide, the following entries are already answered.
INSERT INTO results (compound_string, subject_of_test, result) VALUES
  ('O=C(Nc1ccc(-n2cc(-c3ccncc3)c(-c3ccc(O)c(Cl)c3)n2)cc1)c1ccc(Cl)c(Cl)c1', 'K-562 leukemia', '> 32.5 µM'),
  ('CCOC(=O)C1=C(O)CSC1=Nc1ccc(N=C2SCC(O)=C2C(=O)OCC)cc1', 'K-562 leukemia', '> 100 µM');

Ask | Bench note: what TGI did O=[N+]([O-])c1ccc([I+]c2ccccc2)cc1 show?
Reply | > 53.2 µM
